test system: OR51E1 (Homo sapiens, UniProt Q8TCB6)
Sequence (Q8TCB6 2-318 limits assumed): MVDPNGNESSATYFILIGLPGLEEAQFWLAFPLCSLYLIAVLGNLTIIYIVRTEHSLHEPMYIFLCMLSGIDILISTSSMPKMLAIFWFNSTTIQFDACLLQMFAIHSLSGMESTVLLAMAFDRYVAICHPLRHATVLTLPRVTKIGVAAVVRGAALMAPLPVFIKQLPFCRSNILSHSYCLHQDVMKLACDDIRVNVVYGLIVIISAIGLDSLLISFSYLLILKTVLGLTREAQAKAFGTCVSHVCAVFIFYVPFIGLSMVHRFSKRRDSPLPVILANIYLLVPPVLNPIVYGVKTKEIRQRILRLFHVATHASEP
test method notes: GloSensor cAMP assay, HEK293T
pEC50: −log10 of the molar value.

- compound: "CCCCC(=O)O [pentanoate]"
  pEC50: 4.46

These data points were gathered from paper PMC13504986.
